Sourced from ChEMBL document CHEMBL5107956

# Test system: RAW264.7
# Measurement Protocol: Antiinflammatory activity against LPS-induced mouse RAW264.7 cells assessed as inhibition of NO production measured after 24 hrs […]
# Type: functional, cell-based
# Protocol Conditions: RAW264.7, 24 h
Assay Endpoint: pIC50
Answers are plain numbers, as −log10 of the molar value.

CC(C)[C@@H](C)/C=C/[C@@H](C)[C@@]1(C)C[C@H]2C3=C4[C@@H](C=C5C[C@@H](O)CC[C@]5(C)[C@H]4CC[C@@]31C)[C@H](C(=O)O)[C@H]2C(=O)O	5.35

Now take the following molecule into account.
Ask | Param item = CC(C)[C@@H](C)/C=C\[C@@H](C)[C@@]1(C)C[C@H]2C3=C4[C@@H](C=C5C[C@@H](O)CC[C@]5(C)[C@H]4CC[C@@]31C)[C@H](C(=O)O)[C@H]2C(=O)O ; retrieve measured pIC50.
Reply | 5.44
